Assign cell viability to each entry below.
- System: DLD1
- TEST SUMMARY: cell viability (CellTiter-Glo) relative to plate median (fraction of plate median); higher = more viable cells
- MEASUREMENT SETUP: 10 µM; treatment time 24 h; reporter: 7TFP
Give bare numbers.

>>> experimental_result("COc1cc(Nc2ncc3c(n2)-c2ccc(Cl)cc2C(c2c(F)cccc2OC)=NC3)ccc1C(=O)O [MLN8237 (Alisertib)]")
0.987
>>> experimental_result("COc1cc2ncnc(Nc3cccc(Cl)c3)c2cc1OC [AG-1478 (Tyrphostin AG-1478)]")
0.949
>>> experimental_result("COc1cc(Nc2ncc(F)c(Nc3ccc4c(n3)N(COP(=O)(O)O)C(=O)C(C)(C)O4)n2)cc(OC)c1OC [R788 (Fostamatinib)]")
0.89

Note: attention shifts to another entry.
Q: What does the data say about its cell viability? Entry: CCN1CCN(c2ccc(Nc3cc(N(C)C(=O)Nc4c(Cl)c(OC)cc(OC)c4Cl)ncn3)cc2)CC1
A: 1.36
